Experiment: Toxicity liver stage against HepG2, at 10uM
Assay type: cell-based
Parameters: test concentration 10 uM, cell line HepG2-A16-CD81EGFP
Conditions: human, HepG2-A16-CD81EGFP cells; read-out: INHIBITION
property: cytotoxicity at 10 µM (%)
Numeric answer only, unit % assumed.

Look over these answered cases.
- molecule: "COc1cccc([C@@H]2CN(C(=O)c3ccc(C)cc3O)C[C@H]2C(=O)O)c1"
  cytotoxicity at 10 µM / %: 6.49
- molecule: "CCOCc1cnc2n1CCN(C(=O)C1=CCCC1)C2C (centres undefined)"
  cytotoxicity at 10 µM / %: -2.42
- molecule: "CCS(=O)(=O)N1CCC2(CCCN(Cc3cc(OC)ccc3F)C2)C1 (centres undefined)"
  cytotoxicity at 10 µM / %: 14.4
- molecule: "Cc1ccc2oc(=O)n(CCC(=O)N3CCCC4(CNC(=O)O4)C3)c2c1 (centres undefined)"
  cytotoxicity at 10 µM / %: -6
- molecule: "CN(Cc1cccs1)C(=O)CN1CCOC(Cn2cncn2)C1 (centres undefined)"
  cytotoxicity at 10 µM / %: -23.7

Ask: Which value of cytotoxicity at 10 µM has been reported for Cc1cc(C)c2c(N(C)CC3CCOC3)ncnc2n1 (centres undefined) in the records?
Reply: -146

Ask: Same again, this time with O=C(c1ccccn1)N1Cc2nccn2CC(COc2cccnc2)C1 (centres undefined)
Reply: -9.52

Ask: Same question for COCC1CN(C(=O)c2ccco2)Cc2nccn2C1 (centres undefined) please.
Reply: -107

Ask: Next molecule: `CCOc1ccc(CN2CC[C@](C)(O)C(C)(C)C2)cn1`
Reply: 5.88

Ask: // next record `CC(C)NC(=O)N1CCC2(CC1)Cc1ccccc1CNC2=O`
Reply: 1.33

Ask: Do the same for Cc1nc(CN2CC(Cc3ccccc3)CC2=O)no1 (centres undefined) please
Reply: 2.42

Ask: And what about the molecule `Cn1cc(Br)c(C(=O)NCCCn2cc(Br)cn2)n1` ?
Reply: -6.4

Ask: Repeat for the following molecule: `O=c1c(NCCNCCO)c(N2CCN(Cc3ccccc3)CC2)c1=O`
Reply: -5.9
